# METHOD: Pharmacokinetics in mice IV 3 and PO 10 mg/kg; plasma, lung and liver
# MEASUREMENT_CONDITIONS: mouse, in vivo, iv, 3 mg/kg

- MOL: "O=C(Nc1ccc([N+](=O)[O-])cc1Cl)c1cc(Cl)ccc1OC(=O)N1CCNCC1"
  C0 [ng/mL]: 536

* * *

# METHOD: Pharmacokinetics in mice IV 3 and PO 10 mg/kg; plasma, lung and liver
# MEASUREMENT_CONDITIONS: mouse, lung, po, 10 mg/kg

- MOLECULE: "O=C(Nc1ccc([N+](=O)[O-])cc1Cl)c1cc(Cl)ccc1O [Niclosamide, reference compound]"
  AUC(0-t): "3060 ng·h/mL"

* * *

# METHOD: Pharmacokinetics in male hamsters, plasma and lung, IV 3 mg/kg or PO 30 mg/kg
# MEASUREMENT_CONDITIONS: male, hamster, in vivo, po, 30 mg/kg, Ratio (Lung/Plasma), Mean, Compound P3 PO 30 mg/kg, 8 h

- MOL: "O=C(Nc1ccc([N+](=O)[O-])cc1Cl)c1cc(Cl)ccc1OC(=O)N1CCNCC1"
  Kp at 8 h: 232

* * *

# METHOD: Parallel artificial membrane permeability assay (PAMPA)
# MEASUREMENT_CONDITIONS: PAMPA

- COMPOUND: "O=C(Nc1ccc(C(F)(F)F)cc1)c1cc(Cl)ccc1O [Compound 39]"
  Papp: "22.3 ×10⁻⁶ cm/s"
- COMPOUND: "CCOP(=O)(OCC)Oc1ccc(Cl)cc1C(=O)Nc1ccc([N+](=O)[O-])cc1Cl [Compound P8]"
  Papp: "982 ×10⁻⁶ cm/s"
- COMPOUND: "N#Cc1ccc(NC(=O)c2cc(Cl)ccc2O)c(Cl)c1 [Compound 32]"
  Papp: "5.16 ×10⁻⁶ cm/s"
- COMPOUND: "O=C(Nc1ccc([N+](=O)[O-])cc1Cl)c1cc(Cl)ccc1OC1CCNCC1 [Compound 4]"
  Papp: "516 ×10⁻⁶ cm/s"

* * *

# METHOD: in vivo
# MEASUREMENT_CONDITIONS: C57BL/6, mouse, po, 100 mg/kg, Cmax, Compound P3 in plasma, PO 100 mg/kg (PO_B), C57BL/6 mice, individual mice

- MOL: "O=C(Nc1ccc([N+](=O)[O-])cc1Cl)c1cc(Cl)ccc1OC(=O)N1CCNCC1"
  MEASUREMENT_UNIT: "ng/mL"
  Cmax: 2970

* * *

# METHOD: physchem
# MEASUREMENT_CONDITIONS: kinetic from dmso stock
Item-by-item account of solubility
OBSERVATION_TYPE: solubility

- MOLECULE: "CC(C)COC(=O)Oc1ccc(Cl)cc1C(=O)Nc1ccc([N+](=O)[O-])cc1Cl [Compound P9]"
  RESULT: "4.48 µg/mL"
- MOLECULE: "COCC(=O)Oc1ccc(Cl)cc1C(=O)Nc1ccc([N+](=O)[O-])cc1Cl [Compound P5]"
  RESULT: "< 1 µg/mL"
- MOLECULE: "O=C(Oc1ccc(Cl)cc1C(=O)Nc1ccc([N+](=O)[O-])cc1Cl)c1ccc(C(F)(F)F)cc1 [Compound P1]"
  RESULT: "< 1 µg/mL"
- MOLECULE: "O=C(Oc1ccc(Cl)cc1C(=O)Nc1ccc([N+](=O)[O-])cc1Cl)c1ccccc1 [Compound P7]"
  RESULT: "< 1 µg/mL"
- MOLECULE: "CC(=O)Oc1ccc(Cl)cc1C(=O)Nc1ccc([N+](=O)[O-])cc1Cl [Compound P4]"
  RESULT: "< 1 µg/mL"
- MOLECULE: "CC(C)OC(=O)Oc1ccc(Cl)cc1C(=O)Nc1ccc([N+](=O)[O-])cc1Cl [Compound P6]"
  RESULT: "< 1 µg/mL"
- MOLECULE: "CCCCCCCC(=O)Oc1ccc(Cl)cc1C(=O)Nc1ccc([N+](=O)[O-])cc1Cl [Compound P2]"
  RESULT: "1.1 µg/mL"

* * *

# METHOD: in vivo
# MEASUREMENT_CONDITIONS: C57BL/6, mouse, po, 100 mg/kg, AUClast, Compound P3 in plasma, PO 100 mg/kg (PO_B), C57BL/6 mice, Mean n = 3

- MOLECULE: "O=C(Nc1ccc([N+](=O)[O-])cc1Cl)c1cc(Cl)ccc1OC(=O)N1CCNCC1 [Compound P3]"
  AUC(0-t): "26400 ng·h/mL"

* * *

# METHOD: Pharmacokinetics in male hamsters, plasma and lung, IV 3 mg/kg or PO 30 mg/kg
# MEASUREMENT_CONDITIONS: male, hamster, in vivo, po, 30 mg/kg, Ratio (Lung/Plasma), Compound P3 PO 30 mg/kg, […], individual animals
# Description: Compound P3 was administered intravenously (3 mg/kg dosing in 20% HP-β-CD in water) or orally (30 mg/kg dosing in 20% HP-β-CD in water).

- MOL: "O=C(Nc1ccc([N+](=O)[O-])cc1Cl)c1cc(Cl)ccc1OC(=O)N1CCNCC1"
  Kp at […]: 34.8

* * *

# METHOD: in vivo
# MEASUREMENT_CONDITIONS: C57BL/6, mouse, po, 100 mg/kg, Cmax, Compound P3 in plasma, PO 100 mg/kg (PO_B), C57BL/6 mice, Mean n = 3

- COMPOUND: "O=C(Nc1ccc([N+](=O)[O-])cc1Cl)c1cc(Cl)ccc1OC(=O)N1CCNCC1 [Compound P3]"
  MEASUREMENT_UNIT: "ng/mL"
  Cmax: 3060

* * *

# METHOD: Kinetic solubility (Tier I ADME)
# MEASUREMENT_CONDITIONS: kinetic from dmso stock
OBSERVATION_TYPE: solubility

- COMPOUND: "CCOP(=O)(OCC)Oc1ccc(Cl)cc1C(=O)Nc1ccc([N+](=O)[O-])cc1Cl [Compound P8]"
  OBSERVATION_TYPE: "solubility"
  RESULT: "< 1 µg/mL"
- COMPOUND: "O=C(Nc1ccc([N+](=O)[O-])cc1Cl)c1cc(Cl)ccc1OC1CCNCC1 [Compound 4]"
  OBSERVATION_TYPE: "solubility"
  RESULT: "8.4 µg/mL"
- COMPOUND: "O=C(Nc1ccc([N+](=O)[O-])cc1Cl)c1cc(Cl)ccc1OC(=O)N1CCNCC1 [Compound P3]"
  OBSERVATION_TYPE: "solubility"
  RESULT: "> 43 µg/mL"

* * *

# METHOD: Pharmacokinetics in mice IV 3 and PO 10 mg/kg; plasma, lung and liver
# MEASUREMENT_CONDITIONS: mouse, plasma, po, 10 mg/kg

- COMPOUND: "O=C(Nc1ccc([N+](=O)[O-])cc1Cl)c1cc(Cl)ccc1O [Niclosamide, reference compound]"
  half-life (h): 2.7

* * *

# METHOD: Pharmacokinetics in mice IV 3 and PO 10 mg/kg; plasma, lung and liver
# MEASUREMENT_CONDITIONS: mouse, in vivo, po, 10 mg/kg, t½, mouse Plasma; Compound P3 dosed PO 10 mg/kg

- MOL: "O=C(Nc1ccc([N+](=O)[O-])cc1Cl)c1cc(Cl)ccc1OC(=O)N1CCNCC1"
  half-life, h: 2.2

* * *

# Test system: SARS CoV-2 (USA_WA1/2020)
# METHOD: Cytopathic effect (CPE) assay
# Format: cell-based
# MEASUREMENT_CONDITIONS: Severe acute respiratory syndrome coronavirus 2, Vero C1008, 72 h
OBSERVATION_TYPE: IC50 (µM)

- COMPOUND: "O=C(Nc1ccc([N+](=O)[O-])cc1Cl)c1cc(Cl)ccc1OC(=O)N1CCNCC1 [Compound P3]"
  OBSERVATION_TYPE: "IC50"
  RECORDED_NUMBER: 4.05
- COMPOUND: "CCOP(=O)(OCC)Oc1ccc(Cl)cc1C(=O)Nc1ccc([N+](=O)[O-])cc1Cl [Compound P8]"
  OBSERVATION_TYPE: "IC50"
  RECORDED_NUMBER: 0.41

* * *

# METHOD: Pharmacokinetics in male hamsters, plasma and lung, IV 3 mg/kg or PO 30 mg/kg
# MEASUREMENT_CONDITIONS: male, hamster, in vivo, iv, 3 mg/kg, Lung (ng/g), Compound P3 IV 3 mg/kg, 8 h, individual animals
OBSERVATION_TYPE: concentration at 8 h (ng/g)

- MOL: "O=C(Nc1ccc([N+](=O)[O-])cc1Cl)c1cc(Cl)ccc1OC(=O)N1CCNCC1"
  OBSERVATION_TYPE: "concentration at 8 h"
  MEASUREMENT_UNIT: "ng/g"
  RECORDED_NUMBER: 270

* * *

# METHOD: Pharmacokinetics in mice IV 3 and PO 10 mg/kg; plasma, lung and liver
# MEASUREMENT_CONDITIONS: mouse, in vivo, po, 10 mg/kg, AUC0-INF, mice; Compound P3 dosed PO 10 mg/kg; Lung

- MOL: "O=C(Nc1ccc([N+](=O)[O-])cc1Cl)c1cc(Cl)ccc1OC(=O)N1CCNCC1"
  AUC(0-inf) (µg·h/mL): 244
